Attribution: ChEMBL document CHEMBL1147712

The following molecules each carry a recorded IC50 for UniProt Q7ZJM1.
Sequence (Q7ZJM1 whole entry): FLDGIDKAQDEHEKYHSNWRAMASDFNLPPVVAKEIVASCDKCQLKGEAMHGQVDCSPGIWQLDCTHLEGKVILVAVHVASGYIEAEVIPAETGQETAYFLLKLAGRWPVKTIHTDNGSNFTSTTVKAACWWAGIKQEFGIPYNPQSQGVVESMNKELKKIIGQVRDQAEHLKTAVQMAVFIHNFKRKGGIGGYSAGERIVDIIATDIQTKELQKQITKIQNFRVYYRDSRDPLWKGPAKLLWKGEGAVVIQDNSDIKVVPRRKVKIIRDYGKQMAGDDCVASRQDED
readout.type: IC50

{"columns": ["entry.smiles", "experimental.system", "obs.value"],
 "data": [
  ["O=C(CC(=O)C(=O)O)CC(=O)c1ccccc1Cl", "UniProt Q7ZJM1", "200 nM"],
  ["O=C(O)C(=O)/C=C(\\O)c1c[nH]c2ccc(Cl)cc12", "UniProt Q7ZJM1", "80 nM"],
  ["O=C(/C=C(\\O)C(=O)O)CCc1ccc(Cl)c(Cl)c1", "UniProt Q7ZJM1", "10 nM"]
]}
